- Test system: amoxicillin/clarithromycin/metronidazole - susceptible strains of Helicobacter pylori
- Assay comment: Bacteriostatic activity (MIC) against susceptible strains
- Format: cell-based
- Conditions used: Helicobacter pylori, H. pylori strain no 13; read-out: MIC
Quantity: MIC (µg/mL)
Numbers only, in µg/mL.

{"Compound": "Cc1ncc([N+](=O)[O-])n1CCO [Metronidazole]", "Measurement target": "amoxicillin/clarithromycin/metronidazole - susceptible strains of Helicobacter pylori", "Display unit": "µg/mL", "MIC": 1}
{"Compound": "CC[C@H]1OC(=O)[C@H](C)[C@@H](O[C@H]2C[C@@](C)(OC)[C@@H](O)[C@H](C)O2)[C@H](C)[C@@H](O[C@@H]2O[C@H](C)C[C@H](N(C)C)[C@H]2O)[C@](C)(OC)C[C@@H](C)C(=O)[C@H](C)[C@@H](O)[C@]1(C)O [Clarithromycin]", "Measurement target": "amoxicillin/clarithromycin/metronidazole - susceptible strains of Helicobacter pylori", "Display unit": "µg/mL", "MIC": 0.06}
{"Compound": "C[S+]([O-])CCCCN=C=S (stereo not shown) [Sulforaphane, 4-methylsulfinylbutyl isothiocyanate]", "Measurement target": "amoxicillin/clarithromycin/metronidazole - susceptible strains of Helicobacter pylori", "Display unit": "µg/mL", "MIC": 4}

// next item, MIC requested
input: Write down the reported MIC (system: amoxicillin/clarithromycin/metronidazole - susceptible strains of Helicobacter pylori) of CC1(C)S[C@@H]2[C@H](NC(=O)[C@H](N)c3ccc(O)cc3)C(=O)N2[C@H]1C(=O)O [Amoxicillin]
output: 0.06

----------
Record form. Attribute: MIC. Fill in for each entry.
- Test system: amoxicillin/clarithromycin/metronidazole - susceptible strains of Helicobacter pylori
- Assay comment: Bacteriostatic activity (MIC) against susceptible strains
- Format: cell-based
- Conditions used: Helicobacter pylori, H. pylori strain no 18; read-out: MIC
Numbers only, in µg/mL.

Worked examples, 3 compounds total:
{"Compound": "CC[C@H]1OC(=O)[C@H](C)[C@@H](O[C@H]2C[C@@](C)(OC)[C@@H](O)[C@H](C)O2)[C@H](C)[C@@H](O[C@@H]2O[C@H](C)C[C@H](N(C)C)[C@H]2O)[C@](C)(OC)C[C@@H](C)C(=O)[C@H](C)[C@@H](O)[C@]1(C)O [Clarithromycin]", "Measurement target": "amoxicillin/clarithromycin/metronidazole - susceptible strains of Helicobacter pylori", "Display unit": "µg/mL", "MIC": 0.06}
{"Compound": "CC1(C)S[C@@H]2[C@H](NC(=O)[C@H](N)c3ccc(O)cc3)C(=O)N2[C@H]1C(=O)O [Amoxicillin]", "Measurement target": "amoxicillin/clarithromycin/metronidazole - susceptible strains of Helicobacter pylori", "Display unit": "µg/mL", "MIC": 0.06}
{"Compound": "Cc1ncc([N+](=O)[O-])n1CCO [Metronidazole]", "Measurement target": "amoxicillin/clarithromycin/metronidazole - susceptible strains of Helicobacter pylori", "Display unit": "µg/mL", "MIC": 1}

// next item, MIC requested
input: Write down the reported MIC (system: amoxicillin/clarithromycin/metronidazole - susceptible strains of Helicobacter pylori) of C[S+]([O-])CCCCN=C=S (stereo not shown) [Sulforaphane, 4-methylsulfinylbutyl isothiocyanate]
output: 0.5

----------
- System: clarithromycin and/or metronidazole - intermediate or resistant strains of Helicobacter pylori
- Assay comment: Bacteriostatic activity (MIC) against intermediate or resistant strains
- Assay type: cell-based
- Conditions used: Helicobacter pylori, H. pylori strain no 43; read-out: MIC
Quantity: MIC (µg/mL)
Give bare numbers, in µg/mL.

{"Compound": "C[S+]([O-])CCCCN=C=S (stereo not shown) [Sulforaphane, 4-methylsulfinylbutyl isothiocyanate]", "MIC, µg/mL": 8}
{"Compound": "Cc1ncc([N+](=O)[O-])n1CCO", "MIC, µg/mL": 1}
{"Compound": "CC1(C)S[C@@H]2[C@H](NC(=O)[C@H](N)c3ccc(O)cc3)C(=O)N2[C@H]1C(=O)O", "MIC, µg/mL": 0.06}

input: Please supply the value of reported MIC for the item "CC[C@H]1OC(=O)[C@H](C)[C@@H](O[C@H]2C[C@@](C)(OC)[C@@H](O)[C@H](C)O2)[C@H](C)[C@@H](O[C@@H]2O[C@H](C)C[C@H](N(C)C)[C@H]2O)[C@](C)(OC)C[C@@H](C)C(=O)[C@H](C)[C@@H](O)[C@]1(C)O"
output: 16

----------
Record form. Attribute: MIC. Fill in for each entry.
- Tested on: amoxicillin/clarithromycin/metronidazole - susceptible strains of Helicobacter pylori
- Assay comment: Bacteriostatic activity (MIC) against susceptible strains
- Type: cell-based
- Conditions used: Helicobacter pylori, H. pylori strain no 12; read-out: MIC
One number for each entry, in µg/mL.

Worked examples, 3 compounds total:
{"Compound": "CC[C@H]1OC(=O)[C@H](C)[C@@H](O[C@H]2C[C@@](C)(OC)[C@@H](O)[C@H](C)O2)[C@H](C)[C@@H](O[C@@H]2O[C@H](C)C[C@H](N(C)C)[C@H]2O)[C@](C)(OC)C[C@@H](C)C(=O)[C@H](C)[C@@H](O)[C@]1(C)O", "Assay result": 0.06}
{"Compound": "C[S+]([O-])CCCCN=C=S (stereo not shown) [Sulforaphane, 4-methylsulfinylbutyl isothiocyanate]", "Assay result": 4}
{"Compound": "CC1(C)S[C@@H]2[C@H](NC(=O)[C@H](N)c3ccc(O)cc3)C(=O)N2[C@H]1C(=O)O", "Assay result": 0.06}

// next item, MIC requested
input: Please supply the value of reported MIC for the item "Cc1ncc([N+](=O)[O-])n1CCO"
output: 1

----------
- Tested on: amoxicillin/clarithromycin/metronidazole - susceptible strains of Helicobacter pylori
- Assay comment: Bacteriostatic activity (MIC) against susceptible strains
- Assay type: cell-based
- Conditions used: Helicobacter pylori, H. pylori strain no 11; read-out: MIC
Record form. Attribute: MIC. Fill in for each entry.
One number for each entry, in µg/mL.

Worked examples, 3 molecules total:
{"Molecule": "CC[C@H]1OC(=O)[C@H](C)[C@@H](O[C@H]2C[C@@](C)(OC)[C@@H](O)[C@H](C)O2)[C@H](C)[C@@H](O[C@@H]2O[C@H](C)C[C@H](N(C)C)[C@H]2O)[C@](C)(OC)C[C@@H](C)C(=O)[C@H](C)[C@@H](O)[C@]1(C)O", "Measurement target": "amoxicillin/clarithromycin/metronidazole - susceptible strains of Helicobacter pylori", "Quantity": "MIC", "Assay result": 0.06}
{"Molecule": "CC1(C)S[C@@H]2[C@H](NC(=O)[C@H](N)c3ccc(O)cc3)C(=O)N2[C@H]1C(=O)O", "Measurement target": "amoxicillin/clarithromycin/metronidazole - susceptible strains of Helicobacter pylori", "Quantity": "MIC", "Assay result": 0.06}
{"Molecule": "C[S+]([O-])CCCCN=C=S (stereo not shown) [Sulforaphane, 4-methylsulfinylbutyl isothiocyanate]", "Measurement target": "amoxicillin/clarithromycin/metronidazole - susceptible strains of Helicobacter pylori", "Quantity": "MIC", "Assay result": 2}

input: Please supply the value of reported MIC for the item "Cc1ncc([N+](=O)[O-])n1CCO"
output: 0.25

----------
- System: amoxicillin/clarithromycin/metronidazole - susceptible strains of Helicobacter pylori
- Assay comment: Bacteriostatic activity (MIC) against susceptible strains
- Format: cell-based
- Conditions used: Helicobacter pylori, H. pylori strain no 5; read-out: MIC
Record form. Attribute: MIC. Fill in for each entry.
Give bare numbers, in µg/mL.

Worked examples, 3 molecules total:
{"Molecule": "C[S+]([O-])CCCCN=C=S (stereo not shown) [Sulforaphane, 4-methylsulfinylbutyl isothiocyanate]", "Quantity": "MIC", "Assay result": 4}
{"Molecule": "CC[C@H]1OC(=O)[C@H](C)[C@@H](O[C@H]2C[C@@](C)(OC)[C@@H](O)[C@H](C)O2)[C@H](C)[C@@H](O[C@@H]2O[C@H](C)C[C@H](N(C)C)[C@H]2O)[C@](C)(OC)C[C@@H](C)C(=O)[C@H](C)[C@@H](O)[C@]1(C)O [Clarithromycin]", "Quantity": "MIC", "Assay result": 0.06}
{"Molecule": "CC1(C)S[C@@H]2[C@H](NC(=O)[C@H](N)c3ccc(O)cc3)C(=O)N2[C@H]1C(=O)O [Amoxicillin]", "Quantity": "MIC", "Assay result": 0.06}

// next item, MIC requested
input: Write down the reported MIC (system: amoxicillin/clarithromycin/metronidazole - susceptible strains of Helicobacter pylori) of Cc1ncc([N+](=O)[O-])n1CCO [Metronidazole]
output: 4

----------
Record form. Attribute: MIC. Fill in for each entry.
- Tested on: amoxicillin/clarithromycin/metronidazole - susceptible strains of Helicobacter pylori
- Assay comment: Bacteriostatic activity (MIC) against susceptible strains
- Type: cell-based
- Conditions used: Helicobacter pylori, H. pylori strain no 26; read-out: MIC

{"Molecule": "CC[C@H]1OC(=O)[C@H](C)[C@@H](O[C@H]2C[C@@](C)(OC)[C@@H](O)[C@H](C)O2)[C@H](C)[C@@H](O[C@@H]2O[C@H](C)C[C@H](N(C)C)[C@H]2O)[C@](C)(OC)C[C@@H](C)C(=O)[C@H](C)[C@@H](O)[C@]1(C)O [Clarithromycin]", "MIC": "0.06 µg/mL"}

Provide MIC for all items below, preserving their order.
1. C[S+]([O-])CCCCN=C=S (stereo not shown) [Sulforaphane, 4-methylsulfinylbutyl isothiocyanate]
2. Cc1ncc([N+](=O)[O-])n1CCO [Metronidazole]

output:
1. 0.5 µg/mL
2. 1 µg/mL

input: Please supply the value of reported MIC for the item CC1(C)S[C@@H]2[C@H](NC(=O)[C@H](N)c3ccc(O)cc3)C(=O)N2[C@H]1C(=O)O [Amoxicillin]
output: 0.06 µg/mL
